# assay.system: recombinant rat VAP-1 (rrVAP-1) (Rattus norvegicus)
# Sequence (O08590 28-763 limits assumed): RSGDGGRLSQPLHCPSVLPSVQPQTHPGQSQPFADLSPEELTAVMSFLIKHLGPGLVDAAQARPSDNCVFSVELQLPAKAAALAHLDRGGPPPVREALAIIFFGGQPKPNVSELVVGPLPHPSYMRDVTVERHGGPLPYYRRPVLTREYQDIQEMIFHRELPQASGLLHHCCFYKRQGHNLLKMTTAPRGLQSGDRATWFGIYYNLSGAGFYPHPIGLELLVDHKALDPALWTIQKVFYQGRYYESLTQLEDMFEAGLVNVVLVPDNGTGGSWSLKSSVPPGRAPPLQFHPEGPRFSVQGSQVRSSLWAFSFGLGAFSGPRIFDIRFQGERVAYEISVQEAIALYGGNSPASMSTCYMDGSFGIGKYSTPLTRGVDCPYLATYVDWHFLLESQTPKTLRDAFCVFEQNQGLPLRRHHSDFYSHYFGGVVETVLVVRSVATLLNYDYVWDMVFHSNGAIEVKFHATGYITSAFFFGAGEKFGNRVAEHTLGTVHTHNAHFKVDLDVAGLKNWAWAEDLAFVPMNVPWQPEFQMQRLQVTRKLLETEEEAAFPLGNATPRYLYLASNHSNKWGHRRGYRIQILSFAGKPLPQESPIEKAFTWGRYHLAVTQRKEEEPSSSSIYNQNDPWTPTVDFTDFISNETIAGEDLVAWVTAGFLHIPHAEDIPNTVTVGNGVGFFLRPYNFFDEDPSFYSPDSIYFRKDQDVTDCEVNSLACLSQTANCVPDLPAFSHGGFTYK
# test: VAP-1 oxidative deamination fluorescence assay (Amplex Red, benzylamine), inhibition
# conditions.used: recombinant rat VAP-1, 50 μM BA, 30 minutes at 37°C, three separate determinations; read-out: IC50 mean ± SD, Rat
In this section, each of the molecules is paired with its reported IC50.
Form entry: value (nM) — number only.

Some solved entries appear below for comparison.
molecule: CC(=O)Nc1nc(CCc2ccc(NC(=N)N)cc2)c(Cc2ccc(S(C)(=O)=O)cc2)s1 [Astellas compound 35c]
unit.abbreviation: nM
IC50: 50.4
--
molecule: C=C(CNN)c1ccccc1
unit.abbreviation: nM
IC50: 120
--
molecule: NNC(N)=O [Semiarid (SEM), semicarbazide]
unit.abbreviation: nM
IC50: 993000

Moving on to another molecule below.
Task: Requested field: IC50. Item: NNc1nncc2ccccc12 [Hydralazine (HYD), hydralazine]
Result: 3130
